Examples of binders with documented Binding affinity (RU) follow.
molecular target: acetylcholine receptor; assay: SPR, receptor on CM5 chip, peptide 10 µM
Expressed in RU, but write only the number.

Reference set (6 entries):
BINDER	UNIT NAME	Binding affinity (RU)
RKQRCK [6mer-1-89]	RU	142
KRLQTR [6mer-1-119]	RU	133
RRLLLR [6mer-1-108]	RU	139
KRQRCK [6mer-1-472]	RU	142
RKVISR [6mer-1-521]	RU	128
KKVITK [6mer-1-489]	RU	148

[Q] Look at this binder and give its reported Binding affinity (RU). KRQVTK [6mer-1-483]
[A] 151

[Q] Repeat for the following binder: KKLLYR [6mer-1-70]
[A] 139

[Q] Same again, this time with KRQVSR [6mer-1-135]
[A] 123
